# Tested on: HLA-B14
# MEASUREMENT_NOTES: REVEAL binding assay
# RUN_PARAMETERS: score as percentage of the signal generated by the positive control peptide
Where no end group is shown, it is not given here. [ ]: non-standard residue; d: D form. Nle = CCCC[C@H](N)C(=O)O
I would appreciate it if you labelled entries Yes when REVEAL binding score, HLA-type B14 is 0.3% or higher, otherwise No.

SUBSTANCE	LABEL_CLASS
ITFSIYLIV	Yes
YIPLVGAPL	No
GYLPAVGAP	No
L[Nle]GYIPLIG	No
DLMGYIPLV	No
YATGNLPGC	Yes
TGNIPGSTY	Yes
YVTGNIPGS	Yes
NLGKVIDTL	Yes
MGYIPLVGA	Yes
GRVIETLTS	No
IGGNYLIPR	Yes
GITFSIYLI	Yes
